B1: tRNA (parent)
chain: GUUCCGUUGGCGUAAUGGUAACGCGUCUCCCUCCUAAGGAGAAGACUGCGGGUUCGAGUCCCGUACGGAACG

- Variants of: B1
- protocol notes: yeast fitness relative to wild type (ratio to wild type); higher = fitter; tRNA-Arg(CCU), competitive growth, 37 C, YPD
This sample holds only a part of the variants without activity.
reported endpoint: yeast fitness
Just the number, please, no unit after it.

U13G A42U C55U C62G A70C = 0.525
U2C A21C = 0.775

Record request: yeast fitness value, item C22G G44C C55U
0.564

What value of yeast fitness has been reported for the following variant? U32C C34U U53A G68C
0.537

Quick one: yeast fitness for U35C G58C ?
0.883

# get_value(readout='yeast fitness', item= G6C C30U U59G C61A )
0.575

Could you tell me which yeast fitness is on file for U3A C11U ?
0.808
